- methodNotes: in vitro
- Assay type: cell-based, African green monkey
- assayConditions: African green monkey; Vero-hSLAM, 72 hours
observable: CC50

- compound: "Cn1nc(C(F)(F)F)cc1C(=O)Nc1ccc(S(=O)(=O)N2CCCC[C@H]2CCN2CCOCC2)cc1"
  CC50: "> 100 µM"

Turning now to a further compound:
Query Cn1nc(C(F)(F)F)cc1C(=O)Nc1ccc(S(=O)(=O)N2CCCC[C@@H]2CCOCc2ccc(N=[N+]=[N-])cc2)cc1 [ERDRP-0519az] yields CC50 of > 100 µM

* * *

- tgt: MeV L L1170F (Measles virus, UniProt P12576, L1170F)
- methodNotes: MeV minigenome dose-response assay, L L1170F
- assayConditions: minigenome, L L1170F
observable: pEC50
FYI, pEC50 means -log10 of a concentration in mol per litre.

Query "NC(=O)c1c(F)cccc1-c1cccc2cnccc12" yields pEC50 of 5.62
